Molecular target: T1, Mcl-1, Q07820
T1 chain: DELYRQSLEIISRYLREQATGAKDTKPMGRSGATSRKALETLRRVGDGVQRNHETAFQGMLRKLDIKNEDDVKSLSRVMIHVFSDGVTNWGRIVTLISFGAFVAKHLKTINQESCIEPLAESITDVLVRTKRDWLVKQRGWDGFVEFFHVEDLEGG
Assay: peptide SPOT array, c-Myc-tagged receptor at 1 uM or 100 nM, anti-c-Myc-Cy3
property-measured: SPOT signal as a fraction of Bim BH3's signal on the same receptor and array

Below are worked cases with known answers.
>>> result_value("FTCKNKFCKPLFWVLDSVNDCGDNSD [ST14]")
0.27
>>> result_value("RRTSINVVRHDGIVGECNIQFALHPT [CPS1]")
0.03
>>> result_value("PVESSWIAPELRLQLDDILPLGKDSG [DHX30]")
0.04
>>> result_value("QLSKPGAALYLQSIGEGFKEAVQYVL [SOS1]")
0.02
>>> result_value("SATHDEAVQVLKKTGKEVVLEVKYMK [SNTA1]")
0.06

(A) LPGRPGLAALLGRLSDRLGRNRDRQR [PGS1]
(B) RDPQGWVAGNLSARGDGAAGFTLPGF [MST1R]
// pick larger SPOT signal as a fraction of Bim BH3's signal on the same receptor and array from pair: A vs B Identify your pick by its label. A
(A: 0.24, B: 0.02)

(a) DSLLWKLAGLLRESGDVVLSGCSTLS [STK11IP]
(b) EELLRSSADFLQRLSAILRTSLRFRL [NOTCH3]
Which numeric SPOT signal as a fraction of Bim BH3's signal on the same receptor and array is bigger, that of a or that of b ? When you have decided, please share the label of that item. b

(1) DPLNDNIATLLHQSSDKFVSELWKDV [MYH9]
(2) HTALENCASLDCIRADELQEALTSHC [MYO3A]
Which one would you say has the larger SPOT signal as a fraction of Bim BH3's signal on the same receptor and array value: 1 , or 2 ? Lab note: record the label of whichever item you select. 2

(P) EKNLPKMAEALAHGADVNWANSEENK [ACAP2]
(Q) LNAVNYISTVDADWADNVFFLQLQQA [RINT1]
# query: argmin of SPOT signal as a fraction of Bim BH3's signal on the same receptor and array over P and Q Could you answer with the label of the item you picked? P
